Counter-ions that a name gives are not always drawn.
// endpoint pIC50 / system LSD1 (Homo sapiens (Human))
Formally, pIC50 is defined as -log10 of the concentration c, with c in mol/L.

Observe how each entry below is paired with its result.
| Compound | Measurement Name | Recorded Value |
| --- | --- | --- |
| COc1ccc(-c2cnc(N3CCC(NCc4ccc(/C=C/C(=O)NO)cc4)CC3)c(C#N)c2-c2ccc(C#N)c(F)c2)cc1F [Example 40, hydrochloride] | pIC50 | 8.08 |
| COc1ccc(-c2cnc(N3CCC(NCc4ccc(/C=C/C(=O)NO)cc4)CC3)c(C#N)c2-c2ccc(C#N)nc2)cc1O | pIC50 | 9.14 |
| CN(C)c1ccc(-c2cnc(N3CCC(NCc4ccc(/C=C/C(=O)NO)cc4)CC3)c(C#N)c2-c2ccc(C#N)c(F)c2)cc1O [Example 153, formate] | pIC50 | 9.13 |
| COc1ccc(-c2cnc(N3CCC(NCc4ccc(/C=C/C(=O)NO)cc4F)CC3)c(OC)c2-c2ccc(C#N)nc2)cc1O [Example 264, formate] | pIC50 | 7.60 |
| N#Cc1ccc(-c2c(-c3ccc(OCCc4ccc(/C=C/C(=O)NO)cc4)c(O)c3)cnc(N3CCC(N)CC3)c2C#N)cc1F [Example 231, hydrochloride] | pIC50 | 10.15 |

[ask] Requested field: pIC50. Item: COc1ccc(-c2cnc(N3CCC(NCc4ccc(/C=C/C(=O)NO)cc4)CC3)c(C#N)c2-c2cnc(C#N)c(OC)c2)cc1O [Example 243, hydrochloride]
[reply] 7.87

[ask] Suppose we examine the compound N#Cc1ccc(-c2c(-c3ccc(/C=C/C(=O)NO)c(O)c3)cnc(N3CCC(N)CC3)c2C#N)cc1F [Example 62, hydrochloride] ; what pIC50 value has been reported?
[reply] 9.31

[ask] Fill in: pIC50 of COc1ccc(-c2cnc(N3CCC(NCc4ccc(C(=O)NO)cc4)CC3)c(C#N)c2-c2ccc(C#N)c(F)c2)cc1O [Example 41, hydrochloride] is ___
[reply] 9.89

[ask] Given the compound N#Cc1ccc(-c2c(-c3ccc4c(c3)OCO4)cnc(N3CCC(NCc4ccc(/C=C/C(=O)NO)cc4)CC3)c2C#N)cc1F [Example 103, formate] , what is its reported pIC50?
[reply] 7.85

[ask] Suppose we examine the compound COc1cc(-c2cnc(N3CCC(NCc4ccc(/C=C/C(=O)NO)cc4)CC3)c(C#N)c2-c2ccc(C#N)c(F)c2)ccc1O [Example 100, hydrochloride] ; what pIC50 value has been reported?
[reply] 7.31

[ask] I am curious: what pIC50 value has been reported for COc1ccc(-c2c(OC)cc(N3CCC(NCc4ccc(/C=C/C(=O)NO)cc4)CC3)nc2-c2ccc(C#N)c(F)c2)cc1O [Example 54, formate] ?
[reply] 9.21

---

- Experimental System: HDAC8 (Homo sapiens (Human))
- Sequence (Q9BY41 whole entry): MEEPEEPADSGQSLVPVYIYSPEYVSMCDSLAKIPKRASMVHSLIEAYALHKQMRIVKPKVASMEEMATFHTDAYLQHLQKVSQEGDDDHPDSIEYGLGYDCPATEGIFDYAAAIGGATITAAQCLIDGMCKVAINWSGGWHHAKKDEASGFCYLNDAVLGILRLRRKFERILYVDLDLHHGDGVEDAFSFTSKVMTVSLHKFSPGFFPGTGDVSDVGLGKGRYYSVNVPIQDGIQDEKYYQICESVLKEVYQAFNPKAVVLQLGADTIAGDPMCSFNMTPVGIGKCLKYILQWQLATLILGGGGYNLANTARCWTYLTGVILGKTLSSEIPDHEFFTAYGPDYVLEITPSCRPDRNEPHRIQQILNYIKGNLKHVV
- Assay Overview: In vitro enzyme inhibition assay - HDAC (HDAC-Glo I/II), HDAC8
- Type: biochemical
- Experimental Conditions: read-out: HDAC IC50 (nM) HDAC 8
Counter-ions that a name gives are not always drawn.
Entries and their log10 IC50 values follow.
Please keep in mind that the values are log10 of IC50 expressed in nM.

These recorded examples may help you get a feel for the data.
| Compound | Experimental System | Measurement Name | Recorded Value |
| --- | --- | --- | --- |
| N#Cc1ccc(-c2nc(N3CCC(N)CC3)cc(O)c2-c2ccc(OCCCCCCC(=O)NO)c(O)c2)cc1F [Example 19, hydrochloride] | HDAC8 (Homo sapiens (Human)) | log10 IC50 | 2.34 |
| COc1ccc(-c2cnc(N3CCC(NCc4ccc(/C=C/C(=O)NO)cc4)CC3)c(OC)c2-c2ccc(C#N)c(F)c2)cc1O | HDAC8 (Homo sapiens (Human)) | log10 IC50 | 2.25 |
| CC(C)(O)COc1ccc(-c2cnc(N3CCC(NCc4ccc(/C=C/C(=O)NO)cc4)CC3)c(C#N)c2-c2ccc(C#N)c(F)c2)cc1O [Example 143, formate] | HDAC8 (Homo sapiens (Human)) | log10 IC50 | 2.05 |
| N#Cc1ccc(-c2c(-c3ccc(OCCCCCCC(=O)NO)c(O)c3)cnc(N3CCC(N)CC3)c2C#N)cc1F [Example 25, hydrochloride] | HDAC8 (Homo sapiens (Human)) | log10 IC50 | 2.11 |
| COc1ccc(-c2cnc(N3CCC(NCc4ccc(/C=C/C(=O)NO)cc4)CC3)c(C)c2-c2ccc(C#N)c(F)c2)cc1O [Example 144, hydrochloride] | HDAC8 (Homo sapiens (Human)) | log10 IC50 | 1.96 |

[ask] Identify the measured log10 IC50 of N#Cc1ccc(-c2c(-c3ccc(C(F)(F)F)c(O)c3)cnc(N3CCC(NCc4ccc(CCC(=O)NO)cc4)CC3)c2C#N)cc1F for HDAC8 (Homo sapiens (Human)).
[reply] 2.53

[ask] Could you share what log10 IC50 was measured for COc1ccc(-c2cnc(N3CCC(Nc4ncc(C(=O)NO)cn4)CC3)c(C#N)c2-c2ccc(C#N)c(F)c2)cc1O [Example 83, formate] , tested on HDAC8 (Homo sapiens (Human))?
[reply] 2.57

[ask] Find log10 IC50 (HDAC8 (Homo sapiens (Human))) for the entry N#Cc1ccc(-c2c(-c3ccc(OC(F)(F)F)c(O)c3)cnc(N3CCC(NCc4ccc(/C=C/C(=O)NO)cc4)CC3)c2C#N)cc1F
[reply] 2.33

[ask] Give the reported log10 IC50 for COc1ccc(-c2cnc(N3CCC(NCc4ccc(/C(C)=C/C(=O)NO)cc4)CC3)c(C#N)c2-c2ccc(C#N)c(F)c2)cc1O [Example 170, formate] (system: HDAC8 (Homo sapiens (Human))).
[reply] 1.80

[ask] Report log10 IC50 for COc1ccc(-c2cnc(N3CCC(NCc4ccc(/C=C(\F)C(=O)NO)cc4)CC3)c(C#N)c2-c2ccc(C#N)c(F)c2)cc1O [Example 171, formate] tested on HDAC8 (Homo sapiens (Human)).
[reply] 1.73

[ask] Reported log10 IC50 for HDAC8 (Homo sapiens (Human)), given COc1ccc(-c2cnc(N3CCC(NCc4cnc(/C=C/C(=O)NO)cn4)CC3)c(C#N)c2-c2ccc(C#N)c(F)c2)cc1O [Example 133, trifluoroacetate] ?
[reply] 2.15

[ask] Under HDAC8 (Homo sapiens (Human)): log10 IC50 value of N#Cc1ccc(-c2c(-c3ccc(C4CC4)c(O)c3)cnc(N3CCC(NCc4ccc(/C=C/C(=O)NO)cc4)CC3)c2C#N)cc1F ?
[reply] 2.55

[ask] Could you share what log10 IC50 was measured for N#Cc1ccc(-c2c(-c3ccc(Cl)c(O)c3)cnc(N3CCC(NCc4cnc(/C=C/C(=O)NO)nc4)CC3)c2C#N)cc1F [Example 159, hydrochloride] , tested on HDAC8 (Homo sapiens (Human))?
[reply] 1.92

[ask] Please provide the recorded log10 IC50 for COc1ccc(-c2cnc(N3CCC(NCc4ccc(/C=C/C(=O)NO)c(OC)c4)CC3)c(C#N)c2-c2ccc(C#N)c(F)c2)cc1O [Example 108, formate] , tested on HDAC8 (Homo sapiens (Human)).
[reply] 1.97

[ask] Recorded log10 IC50 for COc1cc(-c2ccc(C(=O)N3CC[C@H](NCc4ccc(/C=C/C(=O)NO)cc4)C3)cc2-c2ccc(C#N)c(F)c2)ccc1O with HDAC8 (Homo sapiens (Human)), please?
[reply] 2.18

[ask] Item: COc1cc(N2CCC(N)CC2)nc(-c2ccc(C#N)c(F)c2)c1-c1ccc(OC/C=C/C(=O)NO)c(O)c1 [Example 29, hydrochloride] Test system: HDAC8 (Homo sapiens (Human)) Read-out: log10 IC50 Value: ?
[reply] 2.84

[ask] Lookup: log10 IC50 / HDAC8 (Homo sapiens (Human)) / COc1cc(-c2cnc(N3CCC(NCc4cccc(/C=C/C(=O)NO)c4)CC3)c(C#N)c2-c2ccc(C#N)c(F)c2)ccc1O
[reply] 2.68

[ask] For the record COc1ccc(-c2c(-c3ccc(C#N)c(F)c3)nc(N3CCC(N)CC3)n3ccnc23)cc1OCCCCCCC(=O)NO [Example 20, hydrochloride] , what value of log10 IC50 is listed for HDAC8 (Homo sapiens (Human))?
[reply] 2.65

[ask] Hi! What's the reported log10 IC50 for N#Cc1ccc(-c2c(-c3cccc(O)c3)cnc(N3CCC(NCc4ccc(/C=C/C(=O)NO)cc4)CC3)c2C#N)cc1F [Example 139, formate] on HDAC8 (Homo sapiens (Human))?
[reply] 2.17

[ask] # get_value(readout= log10 IC50, system= HDAC8 (Homo sapiens (Human))) for CC1(N)CCN(c2ncc(-c3ccc(/C=C/C(=O)NO)c(O)c3)c(-c3ccc(C#N)c(F)c3)c2C#N)CC1 [Example 64, formate]
[reply] 2.64

[ask] Provide value of log10 IC50 for this record tested with HDAC8 (Homo sapiens (Human)): COc1ccc(-c2cnc(N3CCC(NCc4ccc(/C=C/C(=O)NO)s4)CC3)c(C#N)c2-c2ccc(C#N)c(F)c2)cc1O [Example 105, formate]
[reply] 2.27

[ask] GET /values?readout=log10 IC50&system=HDAC8 (Homo sapiens (Human))&item= COc1ccc(-c2ccc(CN3CC[C@H](NCc4ccc(/C=C/C(=O)NO)cc4)C3)cc2-c2ccc(C#N)c(F)c2)cc1O
[reply] 2.32
